target_or_test_system: T1, cynomolgus MCSP D3 (cynomolgus, UniProt Q6UVK1 1582-2224 (human entry), limits assumed)
T1 construct: also called Cyno MCSP; cynomolgus homologue
T1 chain: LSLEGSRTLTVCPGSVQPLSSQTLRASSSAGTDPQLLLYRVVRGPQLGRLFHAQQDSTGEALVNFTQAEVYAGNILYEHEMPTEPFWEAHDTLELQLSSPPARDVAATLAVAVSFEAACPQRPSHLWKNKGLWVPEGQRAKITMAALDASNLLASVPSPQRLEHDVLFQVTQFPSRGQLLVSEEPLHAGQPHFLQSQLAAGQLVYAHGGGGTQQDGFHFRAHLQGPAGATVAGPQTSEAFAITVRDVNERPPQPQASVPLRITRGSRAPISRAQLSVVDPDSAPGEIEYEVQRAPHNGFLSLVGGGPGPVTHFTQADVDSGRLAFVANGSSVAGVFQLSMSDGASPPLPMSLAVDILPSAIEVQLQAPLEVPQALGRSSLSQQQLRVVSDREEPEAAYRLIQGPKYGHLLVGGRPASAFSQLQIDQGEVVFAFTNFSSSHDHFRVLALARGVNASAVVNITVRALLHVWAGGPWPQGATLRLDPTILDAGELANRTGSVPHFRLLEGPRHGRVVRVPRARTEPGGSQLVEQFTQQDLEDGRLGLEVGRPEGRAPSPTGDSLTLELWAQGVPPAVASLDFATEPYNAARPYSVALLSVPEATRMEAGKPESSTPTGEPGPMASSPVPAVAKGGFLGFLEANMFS
test: SPR Biacore T200, 25 C; affinity: IgG captured via anti-human Fc, MCSP D3 as analyte
test_readout: Kd (nM)
Give just the numeric value; nM need not be written.

Inquiry: I would be grateful if you could share the reported Kd for M4-3(C1)/ML2(E10) IgG (antibody, V domains shown, Human IgG1) VH: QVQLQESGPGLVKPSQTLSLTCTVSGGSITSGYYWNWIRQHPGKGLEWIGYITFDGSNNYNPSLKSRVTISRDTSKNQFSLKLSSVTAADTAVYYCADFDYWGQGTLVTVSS VL: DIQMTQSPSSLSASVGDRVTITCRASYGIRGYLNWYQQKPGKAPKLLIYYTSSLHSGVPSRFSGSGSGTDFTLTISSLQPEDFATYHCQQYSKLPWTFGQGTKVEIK .
Reply text: 3.8

Inquiry: Same lookup for M4-3(C1)/ML2(G3) IgG (antibody, V domains shown, Human IgG1) VH: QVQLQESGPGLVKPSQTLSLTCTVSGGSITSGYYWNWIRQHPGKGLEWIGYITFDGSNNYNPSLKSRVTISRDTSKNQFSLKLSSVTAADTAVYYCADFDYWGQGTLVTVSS VL: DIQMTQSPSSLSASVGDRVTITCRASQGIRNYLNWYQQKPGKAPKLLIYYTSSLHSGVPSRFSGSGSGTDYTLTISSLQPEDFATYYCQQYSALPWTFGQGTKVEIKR , please.
Reply text: 1.4

Inquiry: Now the same for Parental M4-3/ML2 IgG (antibody, V domains shown, Human IgG1 format, from mammalian production; also called M4-3 ML2 (parental); anti-MCSP antibody M4-3/ML2) VH: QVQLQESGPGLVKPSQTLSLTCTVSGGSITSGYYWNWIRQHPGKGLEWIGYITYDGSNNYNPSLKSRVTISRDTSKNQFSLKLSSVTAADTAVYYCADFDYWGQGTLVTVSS VL: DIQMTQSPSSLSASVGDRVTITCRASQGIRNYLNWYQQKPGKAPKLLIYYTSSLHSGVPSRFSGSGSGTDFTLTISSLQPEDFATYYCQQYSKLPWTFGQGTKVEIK
Reply text: 11.4

Inquiry: M4-3(C1)/ML2(C5) IgG (antibody, V domains shown, Human IgG1) VH: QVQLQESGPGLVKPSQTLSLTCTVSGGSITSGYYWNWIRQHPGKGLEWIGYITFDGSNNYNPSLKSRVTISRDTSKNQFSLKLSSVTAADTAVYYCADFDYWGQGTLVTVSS VL: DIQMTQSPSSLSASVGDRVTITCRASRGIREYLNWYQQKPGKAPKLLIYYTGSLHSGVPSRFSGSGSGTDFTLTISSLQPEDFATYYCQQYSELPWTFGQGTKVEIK ?
Reply text: 1.3
